Data provenance: patent USRE47150

Readings of Kd for the listed binders
tested-target: T1, mouse tissue factor pathway inhibitor (TFPI) (mouse, UniProt O54819 29-289, limits assumed)
T1 construct: bought; also called mTFPI; murine TFPI
T1 sequence (looked up): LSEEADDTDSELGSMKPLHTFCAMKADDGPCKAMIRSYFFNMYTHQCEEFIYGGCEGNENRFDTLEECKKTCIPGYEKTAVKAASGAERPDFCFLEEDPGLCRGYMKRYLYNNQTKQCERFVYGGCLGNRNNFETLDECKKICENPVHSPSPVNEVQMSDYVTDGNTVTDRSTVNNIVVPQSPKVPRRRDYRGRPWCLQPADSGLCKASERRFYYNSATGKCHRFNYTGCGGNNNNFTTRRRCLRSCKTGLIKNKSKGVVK
experiment-summary: SPR, TFPI immobilized
measured-metric: Kd

INSERT INTO results (binder, experimental_result) VALUES
  ('4B7 wild-type Fab (Fab, V domains shown, Fab with HA (or c-myc) and 6xHis tag at the C-terminus of the heavy chain; also called 4B7wt; parental 4B7) VH: QVQLQQSGPGLVKPSQTLSLTCAISGDSVSSNSAAWSWIRQSPGRGLEWLGIIYKRSKWYNDYAVSVKSRITINPDTSKNQFSLQLNSVTPEDTAVYYCARWHSDKHWGFDYWGQGTLVTVSS VL: DIVMTQSPLSLPVTPGEPASISCRSSQSLVFSDGNTYLNWYLQKPGQSPQLLIYKGSNRASGVPDRFSGSGSGTDFTLKISRVEAEDVGVYYCQQYDSYPLTFGQGTKVEIKR', '58.6 nM'),
  ('2A8 HC_S31P (Fab, V domains shown, also called 2A8-2) VH: QVQLVESGGGLVQPGGSLRLSCAASGFTFRPYGMSWVRQAPGKGLEWVSSIRGSSSSTYYADSVKGRFTISRDNSKNTLYLQMNSLRAEDTAVYYCARKYRYWFDYWGQGTLVTVSS VL: DIELTQPPSVSVAPGQTARISCSGDNLRNYYAHWYQQKPGQAPVVVIYYDNNRPSGIPERFSGSNSGNTATLTISGTQAEDEADYYCQSWDDGVPVFGGGTKLTVLG', '2.06 nM'),
  ('2A8 wild-type Fab (Fab, V domains shown, Fab with c-myc (or HA, or none) and 6xHis tag at the C-terminus of the heavy chain; also called 2A8wt; 2A8 wt) VH: QVQLVESGGGLVQPGGSLRLSCAASGFTFRSYGMSWVRQAPGKGLEWVSSIRGSSSSTYYADSVKGRFTISRDNSKNTLYLQMNSLRAEDTAVYYCARKYRYWFDYWGQGTLVTVSS VL: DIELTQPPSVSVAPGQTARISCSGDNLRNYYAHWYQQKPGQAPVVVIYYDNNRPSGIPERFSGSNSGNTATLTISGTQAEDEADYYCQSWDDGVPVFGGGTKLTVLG', '3.51 nM');
